# method-description: self-splicing fitness, log relative to wild type (ln ratio); higher = more splicing; Tetrahymena group I intron in knt gene, E. coli kanamycin selection, DiMSum; sequences stand for … in CUCUCU…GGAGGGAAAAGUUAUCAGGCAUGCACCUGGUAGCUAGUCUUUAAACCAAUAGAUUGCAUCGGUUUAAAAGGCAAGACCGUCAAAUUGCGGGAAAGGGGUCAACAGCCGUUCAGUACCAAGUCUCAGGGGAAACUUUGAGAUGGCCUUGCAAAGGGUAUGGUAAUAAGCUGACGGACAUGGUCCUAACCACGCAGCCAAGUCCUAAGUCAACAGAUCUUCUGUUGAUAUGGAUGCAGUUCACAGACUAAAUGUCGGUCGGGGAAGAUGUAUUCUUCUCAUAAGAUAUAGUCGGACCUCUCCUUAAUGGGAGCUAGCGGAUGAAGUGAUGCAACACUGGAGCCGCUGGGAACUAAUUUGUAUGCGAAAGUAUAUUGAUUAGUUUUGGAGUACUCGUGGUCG;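 note: selection with 25 µg/mL kanamycin versus none on LB agar overnight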
# particulars: 30 °C
sequences and their reported self-splicing fitness (ln)
observable: self-splicing fitness (ln)

biopolymer-sequence: GAGUAGCAAUAUUACGCACG
observable: self-splicing fitness (ln)
result-number: -1.77
--
biopolymer-sequence: UAGGAGCAAUAUUACGUUAG
observable: self-splicing fitness (ln)
result-number: -3.8
--
biopolymer-sequence: GUCGAGCAAUAUUACGUCUC
observable: self-splicing fitness (ln)
result-number: -1.76
--
biopolymer-sequence: UUGGAGCAAUAUUACGACUU
observable: self-splicing fitness (ln)
result-number: -1.94
--
biopolymer-sequence: UAGAAGCAAUAUUACGAUAG
observable: self-splicing fitness (ln)
result-number: -1.57
--
biopolymer-sequence: CGACAGCAAUAUUACGGAUA
observable: self-splicing fitness (ln)
result-number: -2.09
--
biopolymer-sequence: UCCCAGCAAUAUUACGUAGC
observable: self-splicing fitness (ln)
result-number: -2.68
--
biopolymer-sequence: UAGCAGCAAUAUUACGGGUA
observable: self-splicing fitness (ln)
result-number: -0.507
--
biopolymer-sequence: UCUCAGCAAUAUUACGGCGU
observable: self-splicing fitness (ln)
result-number: -0.533
--
biopolymer-sequence: AGCAAGCAAUAUUACGGUGU
observable: self-splicing fitness (ln)
result-number: -2.65
--
biopolymer-sequence: GGCUAGCAAUAUUACGUGCG
observable: self-splicing fitness (ln)
result-number: -0.139
--
biopolymer-sequence: UGAUAGCAAUAUUACGGACC
observable: self-splicing fitness (ln)
result-number: -1.26
--
biopolymer-sequence: UGCCAGCAAUAUUACGUCCU
observable: self-splicing fitness (ln)
result-number: -1.6
--
biopolymer-sequence: CGAAAGCAAUAUUACGGUCC
observable: self-splicing fitness (ln)
result-number: -0.283
--
biopolymer-sequence: GUAUAGCAAUAUUACGUGUA
observable: self-splicing fitness (ln)
result-number: -1.79
--
biopolymer-sequence: AUUCAGCAAUAUUACGUGUA
observable: self-splicing fitness (ln)
result-number: -1.7
--
biopolymer-sequence: GGCCAGCAAUAUUACGGAGG
observable: self-splicing fitness (ln)
result-number: -2.39
--
biopolymer-sequence: AGCUAGCAAUAUUACGCAAU
observable: self-splicing fitness (ln)
result-number: -1.79
--
biopolymer-sequence: AGCGAGCAAUAUUACGUCCC
observable: self-splicing fitness (ln)
result-number: -1
--
biopolymer-sequence: AAUGAGCAAUAUUACGUGUU
observable: self-splicing fitness (ln)
result-number: -4.51
--
biopolymer-sequence: AAUUAGCAAUAUUACGGGGU
observable: self-splicing fitness (ln)
result-number: -2.06
--
biopolymer-sequence: UGCCAGCAAUAUUACGUGAG
observable: self-splicing fitness (ln)
result-number: -2.12
--
biopolymer-sequence: CCUAAGCAAUAUUACGAUCU
observable: self-splicing fitness (ln)
result-number: -3.39
--
biopolymer-sequence: AAGGAGCAAUAUUACGUUCA
observable: self-splicing fitness (ln)
result-number: -1.44
--
biopolymer-sequence: CCCCAGCAAUAUUACGGUAA
observable: self-splicing fitness (ln)
result-number: -3.78
--
biopolymer-sequence: UAAUAGCAAUAUUACGUUCU
observable: self-splicing fitness (ln)
result-number: -2.47
--
biopolymer-sequence: UUACAGCAAUAUUACGUACC
observable: self-splicing fitness (ln)
result-number: -1.19
--
biopolymer-sequence: UCCGAGCAAUAUUACGAGGU
observable: self-splicing fitness (ln)
result-number: -3.89
--
biopolymer-sequence: UGAGAGCAAUAUUACGACGC
observable: self-splicing fitness (ln)
result-number: -1.61
--
biopolymer-sequence: GCACAGCAAUAUUACGAAGU
observable: self-splicing fitness (ln)
result-number: -1.3
--
biopolymer-sequence: UUAUAGCAAUAUUACGUAUG
observable: self-splicing fitness (ln)
result-number: -1.03
--
biopolymer-sequence: GCAUAGCAAUAUUACGGUAA
observable: self-splicing fitness (ln)
result-number: -2.31
--
biopolymer-sequence: ACUCAGCAAUAUUACGGUCG
observable: self-splicing fitness (ln)
result-number: -3.23
--
biopolymer-sequence: ACGAAGCAAUAUUACGAGAG
observable: self-splicing fitness (ln)
result-number: -3.39
